Biological target: T1, Mature human CD3e(1-118)_FLAG-chLys_Avi (human)
T1 construct: also called human CD3 epsilon antigen
T1 sequence (chain, as listed by the source limits assumed): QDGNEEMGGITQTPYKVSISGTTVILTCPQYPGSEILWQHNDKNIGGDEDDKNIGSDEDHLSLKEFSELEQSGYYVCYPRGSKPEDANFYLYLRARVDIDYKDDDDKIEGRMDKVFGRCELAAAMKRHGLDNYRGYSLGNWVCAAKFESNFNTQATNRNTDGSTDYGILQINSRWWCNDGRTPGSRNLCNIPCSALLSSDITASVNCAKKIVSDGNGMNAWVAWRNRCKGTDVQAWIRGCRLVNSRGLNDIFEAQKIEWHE
Assay: BLI (Octet HTX); FabCys captured on Fab-specific sensor, CD3e antigen as analyte; 1:1 model
This section presents binders with their documented kon values.

### Prompt Query (binder): MAB-12_h_FabCys (Fab, V domains shown, Tagless disulfide-bridged human FabCys produced in HEK293 cells; also called MAB-12 Fab-Cys) VH: EVQLVESGGGLVQPGGSLRLSCAASGFTFRSHYMTWVRQAPGKGLEWVANIDYEGTRTYYAESVKGRFTISRDNAKNSLYLQMNSLRAEDTAVYYCARGYSAEFAHRSGLDVWGQGTLVTVSS VL: QSVLTQPPSASGTPGQRVTISCSGSSSNIGANYVYWYQQLPGTAPKLLIYRNNQRPSGVPDRFSGSKSGTSASLAISGLRSEDEADYYCAAWDRHSHGAVFGGGTKLTVLG ; field requested: kon
### Response 650000 M⁻¹ s⁻¹

### Prompt MAB-7_h_FabCys (Fab, V domains shown, Tagless disulfide-bridged human FabCys produced in HEK293 cells; also called MAB-7 Fab-Cys) VH: EVQLVESGGGLVQPGGSLRLSCAASGFTFKSYYMSWVRQAPGKGLEWVANIDYQSQHAYYAESVKGRFTISRDNAKNSLYLQMNSLRAEDTAVYYCARGYSAEFAHRSGLDVWGQGTLVTVSS VL: QSVLTQPPSASGTPGQRVTISCSGSSSNIGSNYVYWYQQLPGTAPKLLIYRNNQRPSGVPDRFSGSKSGTSASLAISGLRSEDEADYYCAAWDRHSHGAVFGGGTKLTVLG ?
### Response 499000 M⁻¹ s⁻¹

### Prompt MAB-16_h_FabCys (Fab, V domains shown, Tagless disulfide-bridged human FabCys produced in HEK293 cells; also called MAB-16 Fab-Cys) VH: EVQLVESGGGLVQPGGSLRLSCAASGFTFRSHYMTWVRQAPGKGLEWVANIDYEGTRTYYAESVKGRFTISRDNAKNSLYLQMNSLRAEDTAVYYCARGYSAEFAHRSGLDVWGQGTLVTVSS VL: QSVLTQPPSASGTPGQRVTISCSGSSSNIGSNYVYWYQQLPGTAPKLLIYRNNQRPSGVPDRFSGSKSGTSASLAISGLRSEDEADYYCAGWDRRLHGAVFGGGTKLTVLG ?
### Response 852000 M⁻¹ s⁻¹

From: patent US20230357398A1
